Source: ChEMBL document CHEMBL5223077

Documented Activity across a set of compounds
# PROTOCOL_DETAILS: Antioxidant activity assessed as DPPH radical scavenging activity relative to control
# Format: functional
# Set-up: concentration or dose not given beside the values
Could you give me the number in %? Just the number is fine.

Below, each entry is followed by its recorded Activity result.
COc1cc(/C=C2\Oc3c(ccc(OC)c3OC)C2=O)ccc1O; 32.8
COc1c(O)ccc2c1O/C(=C\c1ccc(O)c(O)c1)C2=O; 84.2
COc1ccc2c(c1OC)O/C(=C\c1ccc(O)c(O)c1)C2=O; 85.8
COc1ccc(/C=C2\Oc3c(ccc(OC)c3OC)C2=O)cc1O; 8.9

# next compound below
Problem: Note Activity for the compound shown: `COc1cc(/C=C2\Oc3c(ccc(O)c3OC)C2=O)ccc1O`
Result: 47.4
